Ki values recorded for Urokinase-type plasminogen activator (Homo sapiens, UniProt P00749)
One number for each entry, in nM.

Check out these entries, answers already filled in.
CC(C)(CNS(=O)(=O)c1ccc2c(Cl)cnc(N=C(N)N)c2c1)C(=O)O : 43
NC(N)=Nc1ncc(Cl)c2ccc(S(=O)(=O)Nc3ccccc3C(=O)O)cc12 : 86

Okay, here is my list. What is Ki for each of these?
1. CN1CCN(S(=O)(=O)c2ccc3c(Cl)cnc(N=C(N)N)c3c2)CC1
2. NC(N)=Nc1ncc(Cl)c2ccc(S(=O)(=O)Nc3cccc(C(=O)O)c3)cc12
3. NC(N)=Nc1ncc(Cl)c2ccc(S(=O)(=O)N3CC(C(=O)O)C3)cc12

1: 550; 2: 59; 3: 330

###

- assay_target: Urokinase-type plasminogen activator (Homo sapiens, UniProt P00749)
- assay_text: Inhibition of uPA in pig granulation tissue homogenate
recorded_endpoint: IC50 (µM)
Answers are plain numbers, in µM.

Entry NC(N)=Nc1nccc2c(Cl)cc(-c3cccc(C(=O)O)c3)cc12 needs its IC50 filled in; supply it. 8.35

###

- assay_text: Solubility in phosphate buffered saline at pH 6.5
- Format: physicochemical
So I've got a bunch of compounds here, and I need their solubility values.

NC(N)=Nc1nccc2c(Cl)cc(-c3cccc(C(=O)O)c3)cc12 : < 1 µg/mL

Annotate the compound CC(C)(NS(=O)(=O)c1ccc2c(Cl)cnc(N=C(N)N)c2c1)C(=O)O with its measured solubility. 2.3 µg/mL

###

// values below are pKi; system is Urokinase-type plasminogen activator (Homo sapiens)
Numbers only, as −log10 of the molar value.

NC(N)=Nc1ncc(Cl)c2ccc(S(=O)(=O)NC3CCCC3)cc12 : 7.15
C[C@@H](C(=O)O)N(Cc1ccccc1)S(=O)(=O)c1ccc2c(Cl)cnc(N=C(N)N)c2c1 : 7.57
CC(C)[C@H](NS(=O)(=O)c1ccc2c(Cl)cnc(N=C(N)N)c2c1)C(=O)O : 7.18
NC(N)=Nc1ncc(Cl)c2ccc(S(=O)(=O)N(CC(=O)O)c3ccccc3)cc12 : 7.54
NC(N)=Nc1ncc(Cl)c2ccc(S(=O)(=O)N3CCOCC3)cc12 : 6.48

Moving on to the next compound.
Determine from records and report pKi for NC(N)=Nc1ncc(Cl)c2ccc(S(=O)(=O)NC3(C(=O)O)CCCCC3)cc12 8.10

###

- assay_text: Drug level in dermis of pig excisional wound model
- Format: ADME, tissue-based, Sus scrofa
- assay_conditions: in vivo, read-out: Activity
recorded_endpoint: concentration (µM)
Give bare numbers, in µM.

Answer with reported concentration of CC(C)(NS(=O)(=O)c1ccc2c(Cl)cnc(N=C(N)N)c2c1)C(=O)O 41.8

###

Exercise: state measured Ki for each of the compounds provided.
- assay_target: Plasminogen (Homo sapiens)
- Sequence (P00747 97-580 limits assumed): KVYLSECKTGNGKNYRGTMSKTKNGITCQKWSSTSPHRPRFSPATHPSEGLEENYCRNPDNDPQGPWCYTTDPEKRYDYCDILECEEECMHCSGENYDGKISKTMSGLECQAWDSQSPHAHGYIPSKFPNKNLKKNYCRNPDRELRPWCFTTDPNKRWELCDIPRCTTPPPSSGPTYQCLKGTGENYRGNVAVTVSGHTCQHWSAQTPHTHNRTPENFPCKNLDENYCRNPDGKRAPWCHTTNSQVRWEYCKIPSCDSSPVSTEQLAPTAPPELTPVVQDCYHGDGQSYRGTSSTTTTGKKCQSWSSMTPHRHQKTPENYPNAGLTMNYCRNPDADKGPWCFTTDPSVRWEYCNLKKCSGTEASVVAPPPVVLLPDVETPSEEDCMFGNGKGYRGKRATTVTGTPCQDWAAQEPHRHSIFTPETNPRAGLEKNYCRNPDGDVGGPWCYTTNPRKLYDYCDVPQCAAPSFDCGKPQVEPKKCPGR
- Sequence (P00747 581-810 limits assumed): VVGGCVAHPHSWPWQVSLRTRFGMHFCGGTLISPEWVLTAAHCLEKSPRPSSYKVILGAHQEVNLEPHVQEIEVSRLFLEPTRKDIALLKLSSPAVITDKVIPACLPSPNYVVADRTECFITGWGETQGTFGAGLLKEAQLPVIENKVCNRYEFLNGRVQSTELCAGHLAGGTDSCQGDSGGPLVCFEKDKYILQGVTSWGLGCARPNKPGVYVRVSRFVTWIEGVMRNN
Numbers only, in µM.

NC(N)=Nc1ncc(Cl)c2ccc(S(=O)(=O)N(CC(=O)O)CC3CCCC3)cc12 : 23

Give Ki for all compounds that follow.
1. CN1CCC(NS(=O)(=O)c2ccc3c(Cl)cnc(N=C(N)N)c3c2)(C(=O)O)CC1
2. CN(C)CCN(C1(C(=O)O)CCCC1)S(=O)(=O)c1ccc2c(Cl)cnc(N=C(N)N)c2c1
3. NC(N)=Nc1ncc(Cl)c2ccc(S(=O)(=O)NC3(C(=O)O)CCC3)cc12

[71, 32, 16]
